System: gephE
Protocol notes: µSPOT peptide microarray binding assay with recombinant gephE
Condition set: µSPOT peptide microarray, GlyRβ full positional scan, recombinant gephE; intensity normalised to wild-type sequence DLRSNDFSIVGSLPR (=1)

Sequence content: DLESNDFSIVGSLPR [GlyRβ_Full_Positional_Scan_051]
System tested: gephE
Unit text: norm.
gephE Binding Intensity [norm.]: 1.03

Sequence content: DLRSMDFSIVGSLPR [GlyRβ_Full_Positional_Scan_098]
System tested: gephE
Unit text: norm.
gephE Binding Intensity [norm.]: 0.92

Sequence content: DMRSNDFSIVGSLPR [GlyRβ_Full_Positional_Scan_038]
System tested: gephE
Unit text: norm.
gephE Binding Intensity [norm.]: 0.97

----------
Tested on: native geph
Protocol notes: µSPOT peptide microarray binding assay with native geph from mouse brain lysate
Condition set: µSPOT full positional scan of GlyRβ 15-mer DLRSNDFSIVGSLPR; native geph; intensity normalised to wild-type sequence (= 1)
# key: entry, value: Native geph Binding Intensity [norm.]

Sequence content: DLRSNDFSIVGSLAR [GlyRβ_Full_Positional_Scan_261]
Native geph Binding Intensity [norm.], norm.: 0.63
//
Sequence content: DLRSNDFSIVGILPR [GlyRβ_Full_Positional_Scan_223]
Native geph Binding Intensity [norm.], norm.: 0.45
//
Sequence content: DLRSNDFSIVGSVPR [GlyRβ_Full_Positional_Scan_246]
Native geph Binding Intensity [norm.], norm.: 0.82
//
Sequence content: DLRSNDFSIVGDLPR [GlyRβ_Full_Positional_Scan_230]
Native geph Binding Intensity [norm.], norm.: 0.45
//
Sequence content: DLRSNDFSIVGSPPR [GlyRβ_Full_Positional_Scan_245]
Native geph Binding Intensity [norm.], norm.: 0.78
//
Sequence content: DLRSNDFSIVGGLPR [GlyRβ_Full_Positional_Scan_222]
Native geph Binding Intensity [norm.], norm.: 0.86
//
Sequence content: DLRSNDFSIVGSSPR [GlyRβ_Full_Positional_Scan_255]
Native geph Binding Intensity [norm.], norm.: 0.85
//
Sequence content: DLRSNDFSIVHSLPR [GlyRβ_Full_Positional_Scan_213, GlyR β 414-428 variant G424H]
Native geph Binding Intensity [norm.], norm.: 0.18
//
Sequence content: DLRSNDFSIVGSLPM [GlyRβ_Full_Positional_Scan_298]
Native geph Binding Intensity [norm.], norm.: 1.42
//
Sequence content: DLRSNDFSIVGPLPR [GlyRβ_Full_Positional_Scan_225]
Native geph Binding Intensity [norm.], norm.: 0.25
//
Sequence content: DLRSNDFSIVRSLPR [GlyRβ_Full_Positional_Scan_212, GlyR β 414-428 variant G424R]
Native geph Binding Intensity [norm.], norm.: 0.17
//
Sequence content: DLRSNDFSIVGQLPR [GlyRβ_Full_Positional_Scan_240]
Native geph Binding Intensity [norm.], norm.: 1.4
//
Sequence content: DLRSNDFSIVMSLPR [GlyRβ_Full_Positional_Scan_218, GlyR β 414-428 variant G424M]
Native geph Binding Intensity [norm.], norm.: 0.17
//
Sequence content: DLRSNDFSIVGFLPR [GlyRβ_Full_Positional_Scan_227]
Native geph Binding Intensity [norm.], norm.: 0.37
//
Sequence content: DLRSNDFSIVGCLPR [GlyRβ_Full_Positional_Scan_237]
Native geph Binding Intensity [norm.], norm.: 0.48
//
Sequence content: DLRSNDFSIVGRLPR [GlyRβ_Full_Positional_Scan_232]
Native geph Binding Intensity [norm.], norm.: 0.8
//
Sequence content: DLRSNDFSIVGSLKR [GlyRβ_Full_Positional_Scan_274]
Native geph Binding Intensity [norm.], norm.: 0.21
//
Sequence content: DLRSNDFSIVGSLPF [GlyRβ_Full_Positional_Scan_287]
Native geph Binding Intensity [norm.], norm.: 0.79
//
Sequence content: DLRSNDFSIVGSIPR [GlyRβ_Full_Positional_Scan_243]
Native geph Binding Intensity [norm.], norm.: 0.93
//
Sequence content: DLRSNDFSIVGSLRR [GlyRβ_Full_Positional_Scan_272]
Native geph Binding Intensity [norm.], norm.: 0.25
//
Sequence content: DLRSNDFSIVGSLDR [GlyRβ_Full_Positional_Scan_270]
Native geph Binding Intensity [norm.], norm.: 0.4
//
Sequence content: DLRSNDFSIVGSAPR [GlyRβ_Full_Positional_Scan_241]
Native geph Binding Intensity [norm.], norm.: 1
//
Sequence content: DLRSNDFSIVGSLPG [GlyRβ_Full_Positional_Scan_282]
Native geph Binding Intensity [norm.], norm.: 0.84
//
Sequence content: DLRSNDFSIVGSLGR [GlyRβ_Full_Positional_Scan_262]
Native geph Binding Intensity [norm.], norm.: 0.44
//
Sequence content: DLRSNDFSIVGSHPR [GlyRβ_Full_Positional_Scan_253]
Native geph Binding Intensity [norm.], norm.: 1.16
//
Sequence content: DLRSNDFSIVGSLPN [GlyRβ_Full_Positional_Scan_299]
Native geph Binding Intensity [norm.], norm.: 1.37
//
Sequence content: DLRSNDFSIVGSLIR [GlyRβ_Full_Positional_Scan_263]
Native geph Binding Intensity [norm.], norm.: 0.49
//
Sequence content: DLRSNDFSIVGSLER [GlyRβ_Full_Positional_Scan_271]
Native geph Binding Intensity [norm.], norm.: 0.28
//
Sequence content: DLRSNDFSIVGSLYR [GlyRβ_Full_Positional_Scan_269]
Native geph Binding Intensity [norm.], norm.: 0.59
//
Sequence content: DLRSNDFSIVGTLPR [GlyRβ_Full_Positional_Scan_236]
Native geph Binding Intensity [norm.], norm.: 1.05
